experiment: Hematology assays in cynomolgus monkeys (Example 45); format: in vivo; conditions: day 78
Provide the recorded reticulocytes for the entries that follow.
Entry rule: numbers only, all in %.

Item under review: ISIS 417002: MOE gapmer, nucleobases 1275 to 1318 of SEQ ID NO: 1 (Table 8) (antisense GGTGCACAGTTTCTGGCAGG; MOE gapmer, wing and gap sizes not given here) . Reported reticulocytes?
1.3

Now the same for ISIS 416850: MOE gapmer, nucleobases 1275 to 1318 of SEQ ID NO: 1 (Table 8) (antisense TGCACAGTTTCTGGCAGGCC; MOE gapmer, wing and gap sizes not given here)
1.8

Now the same for ISIS 416838: MOE gapmer, nucleobases 1018 to 1042 of SEQ ID NO: 1 (Table 6) (antisense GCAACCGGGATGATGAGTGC; MOE gapmer, wing and gap sizes not given here)
1.4

Now the same for ISIS 416864: MOE gapmer, nucleobases 1275 to 1318 of SEQ ID NO: 1 (Table 8) (antisense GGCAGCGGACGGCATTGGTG; MOE gapmer, wing and gap sizes not given here)
1.2

Now the same for ISIS 416858: MOE gapmer, nucleobases 1275 to 1318 of SEQ ID NO: 1 (Table 8) (antisense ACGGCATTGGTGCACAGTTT; MOE gapmer, wing and gap sizes not given here)
1.2

---

Assay: Hematology assays in cynomolgus monkeys (Example 45)
Type: in vivo
Settings: day 43
Procedure: Groups, each consisting of two male and three female monkeys, were injected subcutaneously with ISIS 416838, ISIS 416850, ISIS 416858, ISIS 416864, or ISIS 417002 in escalating doses. […] Body weights were measured weekly. […]
measurement name: eosinophils
Phrase the answer as number then unit, nothing more needed.

Item under review: ISIS 417002: MOE gapmer, nucleobases 1275 to 1318 of SEQ ID NO: 1 (Table 8) (antisense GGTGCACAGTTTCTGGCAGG; MOE gapmer, wing and gap sizes not given here) . Reported eosinophils?
0.2%

Now the same for ISIS 416858: MOE gapmer, nucleobases 1275 to 1318 of SEQ ID NO: 1 (Table 8) (antisense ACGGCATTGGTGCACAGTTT; MOE gapmer, wing and gap sizes not given here)
0.3%

Now the same for ISIS 416838: MOE gapmer, nucleobases 1018 to 1042 of SEQ ID NO: 1 (Table 6) (antisense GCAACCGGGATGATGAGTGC; MOE gapmer, wing and gap sizes not given here)
0.6%

Now the same for ISIS 416864: MOE gapmer, nucleobases 1275 to 1318 of SEQ ID NO: 1 (Table 8) (antisense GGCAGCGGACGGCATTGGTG; MOE gapmer, wing and gap sizes not given here)
0.6%

Now the same for ISIS 416850: MOE gapmer, nucleobases 1275 to 1318 of SEQ ID NO: 1 (Table 8) (antisense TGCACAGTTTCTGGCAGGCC; MOE gapmer, wing and gap sizes not given here)
1.2%

---

Provide the recorded Inhibition of Factor 11 protein relative to the PBS control for the entries that follow.
system: Factor 11 protein; test: Factor 11 protein in monkey plasma by sandwich ELISA (Example 45); format: in vivo, cynomolgus monkeys; details: day 15; escalating dose regimen; plasma ELISA
Entry rule: numbers only, all in %.

Item under review: ISIS 416864: MOE gapmer, nucleobases 1275 to 1318 of SEQ ID NO: 1 (Table 8) (antisense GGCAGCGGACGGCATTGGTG; MOE gapmer, wing and gap sizes not given here) . Reported Inhibition of Factor 11 protein relative to the PBS control?
9

Now the same for ISIS 416838: MOE gapmer, nucleobases 1018 to 1042 of SEQ ID NO: 1 (Table 6) (antisense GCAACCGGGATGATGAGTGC; MOE gapmer, wing and gap sizes not given here)
4

Now the same for ISIS 416858: MOE gapmer, nucleobases 1275 to 1318 of SEQ ID NO: 1 (Table 8) (antisense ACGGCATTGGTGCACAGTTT; MOE gapmer, wing and gap sizes not given here)
16

Now the same for ISIS 416850: MOE gapmer, nucleobases 1275 to 1318 of SEQ ID NO: 1 (Table 8) (antisense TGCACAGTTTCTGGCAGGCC; MOE gapmer, wing and gap sizes not given here)
4

Now the same for ISIS 417002: MOE gapmer, nucleobases 1275 to 1318 of SEQ ID NO: 1 (Table 8) (antisense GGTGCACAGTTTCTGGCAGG; MOE gapmer, wing and gap sizes not given here)
4

---

assay: Tolerability in Sprague-Dawley rats: hematology assays (Example 35); details: 50 mg/kg s.c. twice per week for 6 weeks
Provide the recorded WBC for the entries that follow.
Entry rule: numbers only, all in nL⁻¹.

Item under review: ISIS 416850: MOE gapmer, nucleobases 1275 to 1318 of SEQ ID NO: 1 (Table 8) (antisense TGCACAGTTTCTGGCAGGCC; MOE gapmer, wing and gap sizes not given here) . Reported WBC?
16

Now the same for ISIS 416864: MOE gapmer, nucleobases 1275 to 1318 of SEQ ID NO: 1 (Table 8) (antisense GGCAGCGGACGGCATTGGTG; MOE gapmer, wing and gap sizes not given here)
15

Now the same for ISIS 416838: MOE gapmer, nucleobases 1018 to 1042 of SEQ ID NO: 1 (Table 6) (antisense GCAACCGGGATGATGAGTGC; MOE gapmer, wing and gap sizes not given here)
13

Now the same for ISIS 416858: MOE gapmer, nucleobases 1275 to 1318 of SEQ ID NO: 1 (Table 8) (antisense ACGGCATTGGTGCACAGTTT; MOE gapmer, wing and gap sizes not given here)
28

Now the same for ISIS 417002: MOE gapmer, nucleobases 1275 to 1318 of SEQ ID NO: 1 (Table 8) (antisense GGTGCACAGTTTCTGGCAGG; MOE gapmer, wing and gap sizes not given here)
23

---

Provide the recorded percent inhibition of Factor 11 at 18.75 nM for the entries that follow.
tested on: human Factor 11 mRNA; assay: Dose-dependent inhibition of human Factor 11 in HepG2 cells, lipofectin 9.375-75 nM (Example 4); type: cell-based; conditions: 18.75 nM, relative to untreated control cells
Strand notation (5' to 3'): a small letter for the sugar, then the base; units joined by * are phosphorothioate-linked, units joined directly phosphodiester-linked; [ ] holds rarer units or linkages, { } end groups; capitals alone tell only the bases. e = 2'-O-(2-methoxyethyl) (MOE); [5mC] = 5-methylcytosine; d = 2'-deoxy (DNA)
Entry rule: numbers only, all in %.

Item under review: 416924 (antisense eG*eT*eG*d[5mC]*dA*d[5mC]*dA*dG*dT*dT*dT*d[5mC]*dT*dG*dG*d[5mC]*dA*eG*eG*e[5mC]) [compound 416924] . Reported percent inhibition of Factor 11 at 18.75 nM?
38

Now the same for 416973 (antisense eT*eT*dA*dT*dG*d[5mC]*d[5mC]*d[5mC]*dT*dT*d[5mC]*dA*dT*dG*dT*e[5mC]*eT*eA*eG*eG) [compound 416973]
75

Now the same for 416993 (antisense e[5mC]*eT*dT*dT*dG*dA*dG*dA*dT*dT*d[5mC]*dT*dT*dT*dG*eG*eG*e[5mC]*e[5mC]*eA) [compound 416993]
37

Now the same for 413474 (antisense eA*eG*e[5mC]*eA*eA*d[5mC]*d[5mC]*dG*dG*dG*dA*dT*dG*dA*dT*eG*eA*eG*eT*eG) [compound 413474]
44

Now the same for 412203 (antisense eA*eA*eT*eG*eT*d[5mC]*dT*dT*dT*dG*dT*dT*dG*d[5mC]*dA*eA*eG*e[5mC]*eG*e[5mC]) [compound 412203]
40

Now the same for 417002 (antisense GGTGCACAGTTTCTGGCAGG; 2-13-5 gapmer chemistry, further chemistry not given here) [compound 417002]
52

---

conditions: rat, in vivo, sc, 50 mg/kg
e = 2'-O-(2-methoxyethyl) (MOE); d = 2'-deoxy (DNA)
measurement name: Platelets

Item under review: ISIS 416867: MOE gapmer, nucleobases 1275 to 1318 of SEQ ID NO: 1 (Table 8) (antisense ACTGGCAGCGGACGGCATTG; MOE gapmer, wing and gap sizes not given here) . Reported Platelets?
705

Now the same for ISIS 416860: MOE gapmer, nucleobases 1275 to 1318 of SEQ ID NO: 1 (Table 8) (antisense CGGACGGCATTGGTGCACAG; MOE gapmer, wing and gap sizes not given here)
669

Now the same for ISIS 416852: MOE gapmer, nucleobases 1275 to 1318 of SEQ ID NO: 1 (Table 8) (antisense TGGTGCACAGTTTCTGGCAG; MOE gapmer, wing and gap sizes not given here)
632

Now the same for ISIS 412225: 5-10-5 MOE gapmer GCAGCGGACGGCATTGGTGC (sugars from the 5' end e5 d10 e5, backbone and methylation of C not given here)
673

Now the same for ISIS 413481: 5-10-5 MOE gapmer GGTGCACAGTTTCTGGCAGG (sugars from the 5' end e5 d10 e5, backbone and methylation of C not given here)
552

Now the same for ISIS 416859: MOE gapmer, nucleobases 1275 to 1318 of SEQ ID NO: 1 (Table 8) (antisense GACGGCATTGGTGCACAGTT; MOE gapmer, wing and gap sizes not given here)
853

Now the same for ISIS 413482: 5-10-5 MOE gapmer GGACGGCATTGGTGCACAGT (sugars from the 5' end e5 d10 e5, backbone and methylation of C not given here)
641

Now the same for ISIS 416861: MOE gapmer, nucleobases 1275 to 1318 of SEQ ID NO: 1 (Table 8) (antisense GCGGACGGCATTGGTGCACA; MOE gapmer, wing and gap sizes not given here)
1008

Now the same for ISIS 412224: 5-10-5 MOE gapmer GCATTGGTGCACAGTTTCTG (sugars from the 5' end e5 d10 e5, backbone and methylation of C not given here)
685

Now the same for ISIS 416848: MOE gapmer, nucleobases 1275 to 1318 of SEQ ID NO: 1 (Table 8) (antisense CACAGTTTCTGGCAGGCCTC; MOE gapmer, wing and gap sizes not given here)
384

Now the same for ISIS 416863: MOE gapmer, nucleobases 1275 to 1318 of SEQ ID NO: 1 (Table 8) (antisense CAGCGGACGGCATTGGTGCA; MOE gapmer, wing and gap sizes not given here)
674

Now the same for ISIS 416866: MOE gapmer, nucleobases 1275 to 1318 of SEQ ID NO: 1 (Table 8) (antisense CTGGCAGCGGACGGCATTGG; MOE gapmer, wing and gap sizes not given here)
900

Now the same for ISIS 412223: 5-10-5 MOE gapmer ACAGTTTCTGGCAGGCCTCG (sugars from the 5' end e5 d10 e5, backbone and methylation of C not given here)
567

Now the same for ISIS 416856: MOE gapmer, nucleobases 1275 to 1318 of SEQ ID NO: 1 (Table 8) (antisense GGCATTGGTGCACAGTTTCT; MOE gapmer, wing and gap sizes not given here)
740

Now the same for ISIS 416851: MOE gapmer, nucleobases 1275 to 1318 of SEQ ID NO: 1 (Table 8) (antisense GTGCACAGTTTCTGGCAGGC; MOE gapmer, wing and gap sizes not given here)
734

All figures here come from patent US20230263822A1.
